normalized RNA/DNA level without ligand (log10) for assorted variants
B1: library; a variant is named by its letters at N, in order (parent)
chain: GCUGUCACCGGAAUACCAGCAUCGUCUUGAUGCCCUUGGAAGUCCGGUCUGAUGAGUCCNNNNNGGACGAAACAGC

Variants of: B1
Assay: normalized RNA/DNA level without ligand (relative to sTRSVctl = 100) (log10 (% of sTRSVctl)); higher = less ribozyme self-cleavage, higher mRNA level
Settings: HEK293T, reporter: mCherry (pCS4076), ligand present: no
quantity.measured: normalized RNA/DNA level without ligand (log10)

{"alteration": "CGUAC", "experimental.value": 1.75}
{"alteration": "AACAG", "experimental.value": 1.78}
{"alteration": "ACGCC", "experimental.value": 1.94}
{"alteration": "GCAAG", "experimental.value": 1.66}
{"alteration": "GAAGG", "experimental.value": 1.72}
